Tested system: full-length beta-Catenin (Uniprot ID P35222) (Homo sapiens (Human)) (UniProt P35222)
Sequence (P35222 whole entry): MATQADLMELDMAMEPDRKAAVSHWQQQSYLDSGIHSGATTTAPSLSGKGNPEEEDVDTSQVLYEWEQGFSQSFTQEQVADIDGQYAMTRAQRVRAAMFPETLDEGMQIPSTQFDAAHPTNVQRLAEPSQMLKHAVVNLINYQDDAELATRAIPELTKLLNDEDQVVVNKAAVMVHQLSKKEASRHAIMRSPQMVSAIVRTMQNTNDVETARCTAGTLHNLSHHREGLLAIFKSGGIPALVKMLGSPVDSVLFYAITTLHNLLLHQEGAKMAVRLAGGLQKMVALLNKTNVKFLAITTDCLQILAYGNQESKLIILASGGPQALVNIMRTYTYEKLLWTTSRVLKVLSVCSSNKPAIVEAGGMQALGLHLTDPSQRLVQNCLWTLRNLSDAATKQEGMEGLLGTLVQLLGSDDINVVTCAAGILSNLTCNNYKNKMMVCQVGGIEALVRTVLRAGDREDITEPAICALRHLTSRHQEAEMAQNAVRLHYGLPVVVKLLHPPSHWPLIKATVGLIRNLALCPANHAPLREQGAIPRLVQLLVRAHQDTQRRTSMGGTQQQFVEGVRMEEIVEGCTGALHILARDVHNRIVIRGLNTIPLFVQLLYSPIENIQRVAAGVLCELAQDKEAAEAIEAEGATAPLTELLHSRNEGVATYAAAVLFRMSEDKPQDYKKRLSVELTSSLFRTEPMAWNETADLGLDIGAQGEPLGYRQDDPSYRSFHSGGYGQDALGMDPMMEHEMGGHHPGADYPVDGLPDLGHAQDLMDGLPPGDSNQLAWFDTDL
Assay procedure: fluorescence polarization competition; full-length beta-catenin, competitor 5FAM-TCF4(10-53) probe
pEC50: −log10 of the molar value. Starred links: 1 amine or outer side, 2 acyl side, 3 side chain; linkers in the order of their positions; H or OH if unused. Positions of bridges follow the written chain, without caps; N, C: chain ends. Non-standard residues stand in square brackets, D forms with d. Primed or numbered codes have the meaning given here. PyrS2″ = (S)-3-amino-1-((pent-4-en-1-yloxy)carbonyl)pyrrolidine-3-carboxylic acid (stapling residue), C=CCCCOC(=O)N1CC[C@@](N[*:1])(C(=O)[*:2])C1; B5(5) = 2,2-bis(4-pentenyl)glycine, 2-amino-2-(pent-4-en-1-yl)hept-6-enoic acid (stitching residue), C=CCCCC(CCCC=C)(N[*:1])C(=O)[*:2]; B5(3) = 2,2-bis(4-pentenyl)glycine (stitching residue), C=CCCCC(CCCC=C)(N[*:1])C(=O)[*:2]; Phe(2-Cl) = N[C@@H](Cc1ccccc1Cl)C(=O)O; Bta = N[C@@H](Cc1csc2ccccc12)C(=O)O; αAllylPro = C=CC[C@@]1(C(=O)O)CCCN1; tBuAla = CC(C)(C)C[C@H](N)C(=O)O; Cit = NC(=O)NCCC[C@H](N)C(=O)O; S8 = C=CCCCCCC[C@](C)(N)C(=O)O
Quick reference for pEC50 among some binders
Reported endpoint: pEC50

binder="Ac-[αAllylPro]DI[B5(5)]D[Cit]AAFQ[S8]F[Bta]Q-NH2 (staple 1-4, 4-11; also: staple isomer, earlier eluting HPLC peak) [I-604]" reported_endpoint=pEC50 readout_value=6.16
binder="Ac-[αAllylPro]D[tBuAla][B5(3)]DDAAFL[PyrS2″][Phe(2-Cl)][Bta]T-NH2 (staple 1-4, 4-11; also: staple stereoisomer: later eluting HPLC peak) [I-1069]" reported_endpoint=pEC50 readout_value=6.04
